# PROCEDURE_TEXT: physchem
# Format: physicochemical
# CONDITION_DESCRIPTION: dmso, organic solvent or mixture
MEASURED_PROPERTY: solubility

Return the recorded solubility value; entry: Nc1ncn([C@@H]2O[C@H](CO)[C@@H](O)[C@@H]2O)c(=O)n1 [ara-AC, 5-azacytosine arabinoside] 370 mg/mL

----------
# PROCEDURE_TEXT: physchem
# Format: physicochemical
# CONDITION_DESCRIPTION: dma, organic solvent or mixture
MEASURED_PROPERTY: solubility (mg/mL)
Answers are plain numbers, in mg/mL.

Determine from records and report solubility for Nc1ncn([C@@H]2O[C@H](CO)[C@@H](O)[C@@H]2O)c(=O)n1 [ara-AC, 5-azacytosine arabinoside] 170

----------
# PROCEDURE_TEXT: physchem
# Type: physicochemical
# CONDITION_DESCRIPTION: water
# Procedure: Two neat, anhydrous solutions of ara-AC dissolved in DMSO and DMA, respectively, were prepared. […] Ara-AC has a solubility of approximately 20 mg/ml in water. The effective dose for ara-AC is 700 mg. […] At higher temperatures (e.g., 50°-60° C.), the ara-AC has proven stable for at least 3 weeks. Thus, the solutions of ara-AC in DMSO and DMA appear to be stable enough for commercial production, handling, and storage. By contrast, a solution of ara-AC in water would degrade 10% in 1.8 hours at 25° C.
MEASURED_PROPERTY: solubility

For the compound Nc1ncn([C@@H]2O[C@H](CO)[C@@H](O)[C@@H]2O)c(=O)n1 [ara-AC, 5-azacytosine arabinoside] , give its reported solubility. ~20 mg/mL

Reference source: patent US4684630A
